# experimentalSystem: Carbonic anhydrase 9 (Homo sapiens, UniProt Q16790)
# assayProcedure: Inhibition of recombinant human carbonic anhydrase 9 incubated for 6 hrs prior to testing measured for 10 to 100 secs by phenol red-based stopped-flow CO2 hydration assay
pKi: −log10 of the molar value.
experimentalReadout: pKi

a: CCn1c(-c2cccs2)cs/c1=N/c1ccc(S(N)(=O)=O)cc1
b: CCn1c(-c2ccc(Cl)cc2)cs/c1=N/c1ccc(S(N)(=O)=O)cc1
c: CCn1c(-c2ccc(-c3ccccc3)cc2)cs/c1=N/c1ccc(S(N)(=O)=O)cc1
Input: Falling order of pKi, please. Answer by writing out the labels in the requested order.
Output: b, a, c
(b: 6.96, a: 6.53, c: 5.37)

I: CCn1c(-c2ccccc2)cs/c1=N/c1ccc(S(N)(=O)=O)cc1
II: CCn1c(-c2ccc([N+](=O)[O-])cc2)cs/c1=N/c1ccc(S(N)(=O)=O)cc1
Input: // compare measured pKi between I and II ; output the lower one Field: selected label. Fill in the label of the entry you choose.
Output: II

====

# experimentalSystem: Carbonic anhydrase 9 (Homo sapiens)
# assayProcedure: Inhibition of recombinant human carbonic anhydrase 9 incubated for 6 hrs prior to testing measured for 10 to 100 secs by phenol red-based stopped-flow CO2 hydration assay
experimentalReadout: Ki (nM)

# example entries with known answers
molSmiles: CCn1c(-c2ccc(F)cc2F)cs/c1=N/c1ccc(S(N)(=O)=O)cc1
experimentalSystem: Carbonic anhydrase 9 (Homo sapiens)
Ki (nM): 144
//
molSmiles: CCn1c(-c2ccc(C#N)cc2)cs/c1=N/c1ccc(S(N)(=O)=O)cc1
experimentalSystem: Carbonic anhydrase 9 (Homo sapiens)
Ki (nM): 4330
//
molSmiles: CCn1c(-c2ccc(Cl)cc2Cl)cs/c1=N/c1ccc(S(N)(=O)=O)cc1
experimentalSystem: Carbonic anhydrase 9 (Homo sapiens)
Ki (nM): 225
//
molSmiles: CCn1c(-c2cccc([N+](=O)[O-])c2)cs/c1=N/c1ccc(S(N)(=O)=O)cc1
experimentalSystem: Carbonic anhydrase 9 (Homo sapiens)
Ki (nM): 214
//
molSmiles: CCn1c(-c2ccc(Br)cc2)cs/c1=N/c1ccc(S(N)(=O)=O)cc1
experimentalSystem: Carbonic anhydrase 9 (Homo sapiens)
Ki (nM): 3390

A: CCn1c(-c2ccc(F)cc2)cs/c1=N/c1ccc(S(N)(=O)=O)cc1
B: CCn1c(-c2ccc(OC)cc2)cs/c1=N/c1ccc(S(N)(=O)=O)cc1
C: CCn1c(-c2ccc(C)cc2)cs/c1=N/c1ccc(S(N)(=O)=O)cc1
Input: Reorder: Ki, max to min. Answer by writing out the labels in the requested order.
Output: A, C, B
